Origin of the recorded values: patent US6596772B1

molecular target: PTP 1B (Homo sapiens, UniProt P18031); construct: made in house; host or cells: Sf-9 insect cells (pFastBac-G2T); assay: PTP IC50 assay, pNPP or FDP as substrate; assay type: biochemical; details: pNPP or FDP as substrate, 25° C.; read-out: PTP IC50 1B
Sequence (P18031 whole entry): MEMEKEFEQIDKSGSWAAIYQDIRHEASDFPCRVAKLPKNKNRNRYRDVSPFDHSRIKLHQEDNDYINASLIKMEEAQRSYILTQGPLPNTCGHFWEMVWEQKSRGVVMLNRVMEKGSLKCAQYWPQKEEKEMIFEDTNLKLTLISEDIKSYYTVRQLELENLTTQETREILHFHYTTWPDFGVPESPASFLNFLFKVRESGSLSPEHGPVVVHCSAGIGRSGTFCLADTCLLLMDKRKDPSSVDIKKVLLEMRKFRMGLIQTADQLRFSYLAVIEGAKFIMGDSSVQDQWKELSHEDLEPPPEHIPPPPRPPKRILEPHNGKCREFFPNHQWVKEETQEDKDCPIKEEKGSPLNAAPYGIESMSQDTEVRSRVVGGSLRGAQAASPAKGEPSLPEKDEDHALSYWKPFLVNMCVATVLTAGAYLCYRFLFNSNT
pIC50: −log10 of the molar value.
We begin with a simple list: items and their reported pIC50.
ENDPOINT LABEL: pIC50

O=S(=O)(Nc1ccc(-c2nnc(-c3ccc(NS(=O)(=O)C(F)(F)F)cc3)o2)cc1)C(F)(F)F [Example 75]; 5.08
O=S(=O)(Nc1ccc(CCc2ccc(NS(=O)(=O)C(F)(F)F)cc2)cc1)C(F)(F)F [Example 66]; 4.22
O=[N+]([O-])c1cc(S(=O)(=O)C(F)(F)F)ccc1SSc1ccc(S(=O)(=O)C(F)(F)F)cc1[N+](=O)[O-] [Example 8]; 4.33
O=C(c1ccccc1)N(Cc1ccc(S(=O)(=O)C(F)(F)F)cc1)Cc1ccc(S(=O)(=O)C(F)(F)F)cc1 [Example 3]; 4.35
O=S(=O)(Nc1ccc(OCCCCOc2ccc(NS(=O)(=O)C(F)(F)F)cc2)cc1)C(F)(F)F [Example 70]; 4.07
O=C(Cc1ccc(CC(=O)Nc2cccc(S(=O)(=O)C(F)(F)F)c2)cc1)Nc1cccc(S(=O)(=O)C(F)(F)F)c1 [Example 22]; 4.59

###

target: PTP EPSILON (Homo sapiens, UniProt P23469); construct: made in house; host or cells: Sf-9 insect cells (pFastBac-G2T); a pGEX 6P-1 construct also existed; assay: PTP IC50 assay, fluorescent substrate DiFMUP; format: biochemical; settings: DiFMUP as substrate, 25° C.; read-out: PTP IC50 Epilson
Sequence (P23469 80-393 limits assumed): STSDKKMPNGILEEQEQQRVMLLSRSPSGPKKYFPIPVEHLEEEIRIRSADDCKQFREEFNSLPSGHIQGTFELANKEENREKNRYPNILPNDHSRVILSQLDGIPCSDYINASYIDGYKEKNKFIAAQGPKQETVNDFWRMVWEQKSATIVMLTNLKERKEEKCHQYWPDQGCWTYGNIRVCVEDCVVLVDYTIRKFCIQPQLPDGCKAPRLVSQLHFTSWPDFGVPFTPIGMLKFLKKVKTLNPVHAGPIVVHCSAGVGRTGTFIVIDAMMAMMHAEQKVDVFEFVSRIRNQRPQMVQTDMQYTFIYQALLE
ENDPOINT LABEL: IC50 (µM)

O=C(O)c1ccc2cc(NS(=O)(=O)C(F)(F)F)ccc2c1; 35.9
CN(Cc1ccc2cc(C(=O)Nc3cccc(C(=O)O)c3)ccc2c1)S(=O)(=O)C(F)(F)F; 7.4
Cc1cccc(C)c1NC(=O)C(c1ccc(S(=O)(=O)C(F)(F)F)cc1)N(C(=O)c1ccccc1)C1CCCCC1 (stereo not shown); 9.3
Cn1c(C(=O)Nc2cccc(C(=O)O)c2)cc2cc(NS(=O)(=O)C(F)(F)F)ccc21; 7.7
CCOC(=O)c1cc2cc(N(S(=O)(=O)C(F)(F)F)S(=O)(=O)C(F)(F)F)ccc2n1CC(=O)O; 41.6
CCOC(=O)c1cc2cc(NS(=O)(=O)C(F)(F)F)ccc2n1CC1CCCCC1; 1.4
CCOC(=O)c1cccc(NC(=O)c2ccc(-c3nc4cc(S(=O)(=O)C(F)(F)F)ccc4n3CC)cc2)c1; 1.5
Cn1c(C(=O)Nc2ccccc2)cc2cc(NS(=O)(=O)C(F)(F)F)ccc21; 26.9
O=C(Cc1ccccc1CC(=O)Nc1ccc(S(=O)(=O)C(F)(F)F)cc1)Nc1ccc(S(=O)(=O)C(F)(F)F)cc1; 17.4
NS(=O)(=O)c1ccc(NCC(O)COc2ccc(S(=O)(=O)C(F)(F)F)cc2[N+](=O)[O-])cc1 (stereo not shown); 7.4
Cc1cc2cc(NS(=O)(=O)C(F)(F)F)ccc2n1CC(=O)OC(C)(C)C; 8.2

###

target: PTP 1B (Homo sapiens, UniProt P18031); construct: made in house; host or cells: Sf-9 insect cells (pFastBac-G2T); assay: PTP IC50 assay, fluorescent substrate DiFMUP; assay type: biochemical; conditions: DiFMUP as substrate, 25° C.; read-out: PTP IC50 1B
Values of IC50 strictly less than 8 µM map to true (1), and values of at least 8 µM map to false (0).

Cn1c(C(=O)Nc2cccc(C(=O)O)c2)cc2cc(NS(=O)(=O)C(F)(F)F)ccc21 [Example 82]; false (0)
CCOC(=O)c1cccc(NC(=O)c2ccc(-c3nc4cc(S(=O)(=O)C(F)(F)F)ccc4n3CC)cc2)c1 [Example 39]; true (1)
CCOC(=O)c1cc2cc(NS(=O)(=O)C(F)(F)F)ccc2n1CC1CCCCC1 [Example 101]; true (1)
Cc1cc2cc(NS(=O)(=O)C(F)(F)F)ccc2n1CC(=O)OC(C)(C)C [Example 88]; false (0)
Cc1cc2cc(NS(=O)(=O)C(F)(F)F)ccc2n1CC(=O)Nc1ccc(C(=O)O)cc1 [Example 85]; false (0)
CCOC(=O)CNC(=O)C(c1ccc(S(=O)(=O)C(F)(F)F)cc1)N(C(=O)c1ccccc1)C1CCCCC1 (stereo not shown) [Example 48]; false (0)
CCCCNC(=O)C(c1ccc(S(=O)(=O)C(F)(F)F)cc1)N(CCO)C(=O)c1ccccc1 (stereo not shown) [Example 45]; false (0)
CCn1c(-c2ccc(C(=O)Nc3ccncc3)cc2)nc2cc(S(=O)(=O)C(F)(F)F)ccc21 [Example 37]; false (0)
O=C(Cc1ccc(CC(=O)Nc2ccc(S(=O)(=O)C(F)(F)F)cc2)cc1)Nc1ccc(S(=O)(=O)C(F)(F)F)cc1 [Example 34]; true (1)
CCCCN(C(=O)c1ccccc1)C(C(=O)NCC(=O)OC)c1ccc(S(=O)(=O)C(F)(F)F)cc1 (stereo not shown) [Example 43]; false (0)
Cc1ccc(Nc2ccc(S(=O)(=O)C(F)(F)C(F)F)cc2[N+](=O)[O-])cc1 [Example 65]; false (0)
CCNC(=O)c1ccc(-c2nc3cc(S(=O)(=O)C(F)(F)F)ccc3n2CC)cc1 [Example 41]; false (0)
CCCN(C(C)=O)C(C(=O)NCC(=O)OCC)c1ccc(S(=O)(=O)C(F)(F)F)cc1 (stereo not shown) [Example 50]; false (0)
O=C(O)c1ccc2cc(NS(=O)(=O)C(F)(F)F)ccc2c1 [Example 90]; false (0)
O=C(O)c1cc2cc(NS(=O)(=O)C(F)(F)F)ccc2n1CC1CCCCC1 [Example 103]; false (0)
